tested on: Escherichia coli ATCC 25922
parameter: MIC

Tell me the measured MIC of CC[C@H](C)[C@H](NC(=O)[C@H](Cc1ccc(O)cc1)NC(=O)[C@H](CCC(N)=O)NC(=O)[C@H](CC(C)C)NC(=O)[C@H](C)NC(=O)[C@H](CCCCN)NC(=O)[C@H](CCCCN)NC(=O)[C@H](CCSC)NC(=O)[C@H](CCCCN)NC(=O)[C@H](CCCCN)NC(=O)[C@H](CCCCN)NC(=O)[C@@H](N)CCCN=C(N)N)C(=O)N[C@@H](CCCCN)C(=O)N[C@@H](CC(C)C)C(=O)N[C@@H](CC(C)C)C(=O)N[C@@H](CCCCN)C(=O)N[C@@H](CCC(=O)O)C(N)=O , please.
25 µM

---

system: Salmonella enterica subsp. enterica serovar Typhimurium C77-31
We begin with a simple list: items and their reported MIC.
Express it in µM; write the number only.

substance.smiles	MIC (µM)
CC[C@H](C)[C@H](NC(=O)[C@H](Cc1c[nH]c2ccccc12)NC(=O)[C@H](CCCCN)NC(=O)[C@H](CC(C)C)NC(=O)[C@@H](NC(=O)[C@H](CCCCN)NC(=O)CNC(=O)[C@@H](NC(=O)[C@H](CCCCN)NC(=O)[C@H](CCCCN)NC(=O)[C@H](CC(C)C)NC(=O)[C@H](CCCN=C(N)N)NC(=O)[C@H](CCCCN)NC(=O)[C@H](CCCN=C(N)N)NC(=O)[C@@H](NC(=O)[C@H](CCCCN)NC(=O)[C@H](CCCCN)NC(=O)[C@@H](N)CCCN=C(N)N)[C@@H](C)O)[C@@H](C)CC)C(C)C)C(N)=O	2

Which MIC is reported for this compound? CC[C@H](C)[C@H](NC(=O)[C@H](CC(C)C)NC(=O)[C@@H](NC(=O)[C@@H](N)CC(=O)O)[C@@H](C)CC)C(=O)N[C@H](C(=O)N[C@H](C(=O)NCC(=O)NCC(=O)N[C@@H](CCCCN)C(=O)N[C@@H](CCCN=C(N)N)C(=O)N[C@@H](CCCN=C(N)N)C(=O)N[C@@H](CCCCN)C(=O)N[C@@H](CCCCN)C(=O)N[C@@H](CCCN=C(N)N)C(=O)N[C@@H](CCCN=C(N)N)C(=O)N[C@@H](CCCN=C(N)N)C(N)=O)C(C)C)[C@@H](C)CC
8

---

What follows is a collection of MIC values obtained with Escherichia coli KCTC 1682.
// units = µM; emit number, no label

Examples with their reported MIC follow.
substance.smiles	unit.tag	measured
CC[C@H](C)[C@H](NC(=O)[C@H](CS)NC(=O)[C@H](CC(C)C)NC(=O)[C@@H](N)CC(C)C)C(=O)N[C@@H](C)C(=O)N[C@@H](CC(C)C)C(=O)N[C@@H](CCCN=C(N)N)C(=O)N[C@@H](CCCCN)C(=O)N[C@@H](CCCCN)C(N)=O	µM	3.78
CC[C@H](C)[C@H](N)C(=O)N[C@@H](CC(C)C)C(=O)NCC(=O)N[C@@H](CCCCN)C(=O)N[C@H](C(=O)N[C@@H](CC(C)C)C(=O)N[C@@H](CCCCN)C(=O)NCC(=O)N[C@H](C(=O)N[C@@H](CCCCN)C(=O)N[C@@H](CCCCN)C(=O)N[C@@H](CC(C)C)C(=O)N[C@@H](Cc1ccccc1)C(N)=O)[C@@H](C)CC)[C@@H](C)CC	µM	2

MIC lookup needed for CC[C@H](C)[C@H](NC(=O)[C@H](CCCCN)NC(=O)[C@H](CCCCN)NC(=O)[C@H](Cc1ccccc1)NC(=O)[C@H](Cc1c[nH]c2ccccc12)NC(=O)[C@@H](N)CCCCN)C(=O)N1CCC[C@H]1C(=O)N[C@@H](CCCCN)C(=O)N[C@@H](Cc1ccccc1)C(=O)N[C@@H](CC(C)C)C(=O)N[C@@H](Cc1cnc[nH]1)C(=O)N[C@@H](CC(C)C)C(=O)N[C@@H](C)C(=O)N[C@@H](CCCCN)C(=O)N[C@@H](CCCCN)C(=O)N[C@@H](Cc1ccccc1)C(N)=O , thanks.
12.5

Same lookup for CC[C@H](C)[C@H](NC(=O)[C@H](CCCN=C(N)N)NC(=O)[C@H](CCCN=C(N)N)NC(=O)[C@H](CC(C)C)NC(=O)[C@@H](N)CCCN=C(N)N)C(=O)N[C@H](C(=O)N[C@H](C(=O)N[C@H](C(=O)N[C@@H](CCCN=C(N)N)C(=O)N[C@H](C(=O)N[C@@H](CCCN=C(N)N)C(=O)N[C@@H](CCCN=C(N)N)C(N)=O)C(C)C)[C@@H](C)CC)C(C)C)C(C)C , please.
7.85

Then this molecule: CC[C@H](C)[C@H](NC(=O)[C@H](CCCCN)NC(=O)[C@H](CCCCN)NC(=O)[C@H](Cc1ccccc1)NC(=O)[C@H](CC(C)C)NC(=O)[C@H](CCCCN)NC(=O)[C@@H](N)Cc1c[nH]c2ccccc12)C(=O)N1CCC[C@H]1C(=O)N[C@@H](CCCCN)C(=O)N[C@@H](Cc1ccccc1)C(=O)N[C@@H](CC(C)C)C(=O)N[C@@H](Cc1cnc[nH]1)C(=O)N[C@@H](CC(C)C)C(=O)N[C@@H](C)C(=O)N[C@@H](CCCCN)C(=O)N[C@@H](CCCCN)C(=O)N[C@@H](Cc1ccccc1)C(N)=O
6.25

---

tested on: Staphylococcus aureus USA 100
parameter: MIC (µM)
The response must be a number in µM with no trailing unit.

substance.smiles	unit.tag	MIC
NCCCC[C@H](NC(=O)[C@H](Cc1c[nH]c2ccccc12)NC(=O)[C@H](CCCCN)NC(=O)[C@H](Cc1c[nH]c2ccccc12)NC(=O)[C@H](Cc1c[nH]c2ccccc12)NC(=O)[C@H](CCCCN)NC(=O)[C@H](Cc1c[nH]c2ccccc12)NC(=O)[C@@H](N)CCCCN)C(N)=O	µM	12.5
CC[C@H](C)[C@H](N)C(=O)N[C@@H](CCCN=C(N)N)C(=O)N[C@H](C(=O)N[C@@H](CCCN=C(N)N)C(=O)N[C@H](C(=O)N[C@@H](CCCN=C(N)N)C(=O)N[C@H](C(=O)N[C@@H](CCCN=C(N)N)C(N)=O)[C@@H](C)CC)[C@@H](C)CC)[C@@H](C)CC	µM	6.25

Look at this compound and give its reported MIC. NC(=O)[C@H](Cc1c[nH]c2ccccc12)NC(=O)[C@H](Cc1c[nH]c2ccccc12)NC(=O)[C@H](Cc1c[nH]c2ccccc12)NC(=O)[C@H](CCCN=C(N)N)NC(=O)[C@H](CCCN=C(N)N)NC(=O)[C@@H](N)CCCN=C(N)N
25

---

Reported MIC, Bacillus subtilis 168.
Use µM as the unit, but write only the number.

# annotated cases, reported MIC shown
substance.smiles	system.name	parameter	unit.tag	measured
CC(C)C[C@H](NC(=O)[C@H](CC(C)C)NC(=O)[C@H](CCCCN)NC(=O)[C@@H]1CCCN1C(=O)[C@H](CC(C)C)NC(=O)[C@H](CC(C)C)NC(=O)[C@H](CCCCN)NC(=O)[C@H](CC(C)C)NC(=O)[C@H](CC(C)C)NC(=O)[C@H](CO)NC(=O)CNC(=O)[C@H](Cc1ccccc1)NC(=O)[C@@H](N)Cc1ccccc1)C(N)=O	Bacillus subtilis 168	MIC	µM	3.12
CC[C@H](C)[C@H](NC(=O)[C@H](C)NC(=O)CNC(=O)[C@H](Cc1c[nH]c2ccccc12)NC(=O)[C@H](CC(N)=O)NC(=O)[C@@H](N)CCCCN)C(=O)N[C@@H](CC(C)C)C(=O)N[C@@H](CCCCN)C(=O)N[C@@H](Cc1cnc[nH]1)C(=O)N[C@H](C(=O)N[C@H](C(=O)N[C@@H](CCCCN)C(N)=O)[C@@H](C)CC)[C@@H](C)CC	Bacillus subtilis 168	MIC	µM	5.8
CC[C@H](C)[C@H](NC(=O)[C@H](CCCCN)NC(=O)[C@@H]1CCCN1C(=O)[C@@H](NC(=O)[C@H](CC(C)C)NC(=O)[C@H](CCCCN)NC(=O)[C@H](CC(C)C)NC(=O)[C@@H](NC(=O)[C@H](CO)NC(=O)CNC(=O)[C@H](Cc1ccccc1)NC(=O)[C@@H](N)Cc1ccccc1)C(C)C)[C@@H](C)CC)C(=O)N[C@@H](CC(C)C)C(N)=O	Bacillus subtilis 168	MIC	µM	6.25

MIC lookup needed for CC[C@H](C)[C@H](NC(=O)[C@H](CCCCN)NC(=O)CNC(=O)[C@H](CC(C)C)NC(=O)[C@@H](NC(=O)[C@H](CCCCN)NC(=O)[C@H](CCCCN)NC(=O)[C@H](Cc1c[nH]c2ccccc12)NC(=O)[C@@H](NC(=O)[C@@H](N)CC(N)=O)C(C)C)C(C)C)C(=O)N[C@H](C(=O)N[C@@H](CCCCN)C(=O)N[C@H](C(=O)N[C@@H](C)C(=O)N[C@@H](CCCCN)C(N)=O)C(C)C)[C@@H](C)CC , thanks.
1.3

The values you see were collected from DBAASP.
